System: MCC-13
procedure-summary: qHTS assay to identify novel small-molecules to repurpose for Merkel cell carcinoma treatment (AID 1296009); further: nearly all actives have a fitted effect of over 60% in size
measurement-setup: MCC and control cell lines, CellTiter-Glo viability, 72 h; series mostly up to 46 µM
Records with an inconclusive call do not appear. Activity calls are given as the source filed them. The call rests on the fitted dose curve; in most records, active means well fitted inhibition curve with a large enough effect; inconclusive means small, poorly fitted or top-dose-only effect; inactive means flat fitted curve, though single readings scatter.
Possible outcomes: active, inactive

| compound | label-value |
| --- | --- |
| NC(=O)c1ccc2nc(-c3ccc(Oc4ccc(Cl)cc4)cc3)[nH]c2c1 | inactive |
| COc1ccc2cc(-c3nc(-c4ccc(S(C)=O)cc4)[nH]c3-c3ccncc3)ccc2c1 (stereo not given) | inactive |
| COc1ccc(-c2cc(=O)c3c(O)cc(O)cc3o2)cc1O | inactive |
| CC(C(=O)O)c1ccc(-c2ccccc2)c(F)c1 (stereo not given) | inactive |
| NCCS | inactive |
| C[C@]12CC[C@@H]3c4ccc(O)cc4C[C@@H](CCCCCCCCCS(=O)CCCC(F)(F)C(F)(F)F)[C@H]3[C@H]1CC[C@H]2O (stereo not given in full) | inactive |
| COc1ccc(-c2coc3cc(O)cc(O)c3c2=O)cc1 | inactive |
| C[C@@H](O)[C@H]1C(=O)N2C(C(=O)O)=C(S[C@@H]3CN[C@H](C(=O)N(C)C)C3)[C@H](C)[C@H]12 | inactive |
| CC(=NNC(=S)N1CCC1)c1ccccn1 | active |
| Cc1ccc([C@@H]2O[C@H](CO)[C@@H](O)[C@H](O)[C@@H]2O)cc1Cc1ccc(-c2ccc(F)cc2)s1 | inactive |

Source listed as PubChem BioAssay (NCATS).
